Data provenance is PubChem BioAssay AID212.

System: BDF1 mice, colon carcinoma 38 sc, T/C %
Protocol Description: NCI In Vivo Anticancer Drug Screen. Data for tumor model Colon Carcinoma 38 (subcutaneous) in B6D2F1 (BDF1) mice
Condition Set: endpoint: median tumor weight (est.); dose: 32.0 mg/kg/injection; schedule: Q07DX002 (ip); vehicle: saline; higher = larger tumour
Results filed as inconclusive are left out.
Quantity Measured: T/C

Completed entries (count: 3):
Molecule	T/C
Nc1nc([Se])c2ncn(C3OC(CO)C(O)C3O)c2n1 (stereo unspecified)	18 % of control
O=C1c2ccccc2C(=O)c2c(NCCNCCO)ccc(NCCNCCO)c21	10 % of control
NNC(=O)c1ccncc1	118 % of control

Send back BDF1 mice, colon carcinoma 38 sc, T/C % T/C of C=C1C(=O)OCC1C(=O)O (stereo unspecified) only.
278 % of control

Recall the reported T/C of COc1ccc(C(=O)/C(Br)=C/C(=O)O)cc1 when tested on BDF1 mice, colon carcinoma 38 sc, T/C %.
71 % of control

Under BDF1 mice, colon carcinoma 38 sc, T/C %: report T/C of COC12C(COC(N)=O)C3=C(C(=O)C(C)=C(N)C3=O)N1CC1C2N1C (stereo unspecified) .
11 % of control

----------
Each entry below carries its reported T/C.
Test system: BDF1 mice, colon carcinoma 38 sc, T/C %
Protocol Description: NCI In Vivo Anticancer Drug Screen. Data for tumor model Colon Carcinoma 38 (subcutaneous) in B6D2F1 (BDF1) mice
Condition Set: endpoint: median tumor weight (est.); dose: 1.5 mg/kg/injection; schedule: Q07DX002 (ip); vehicle: Klucel (hydroxypropylcellulose) (HPC); higher = larger tumour
Inconclusive results are not listed.

Answered cases to consult:
Compound	T/C
CC(=O)O[C@@H]1CO[C@H]2O[C@H]3[C@@H](C(C=O)=C[C@H](O)[C@@H]4C5=C(C(C)C)CC[C@]5(C)CC[C@@]34C)[C@@]2(O)C1=O	57 % of control
CCS/C(SC)=C(/c1ccccc1)[P+](c1ccccc1)(c1ccccc1)c1ccccc1	87 % of control
COC1/C=C\C=C(/C)C(=O)NC2=CC(=O)C=C(C2=O)C(OC)C(C)CC(OC)C(OC)C(C)/C=C(/C)C1OC(N)=O (stereo not given)	159 % of control

Using BDF1 mice, colon carcinoma 38 sc, T/C % as the test system, report measured T/C of CC1=C2CC(C)(C)/C=C\C(=O)/C(C)=C\C3=C[C@H](C)C[C@]3(O2)C1=O .
80 % of control

Quote BDF1 mice, colon carcinoma 38 sc, T/C % T/C for entry C=C(OP(=O)(OC)OC)Sc1ccccc1C .
100 % of control

----------
Test system: BDF1 mice, colon carcinoma 38 sc, T/C %
Protocol Description: NCI In Vivo Anticancer Drug Screen. Data for tumor model Colon Carcinoma 38 (subcutaneous) in B6D2F1 (BDF1) mice
Condition Set: endpoint: median tumor weight (est.); dose: 800.0 mg/kg/injection; schedule: Q07DX002 (ip); vehicle: saline with Tween-80; higher = larger tumour
Records with an inconclusive call do not appear.
Quantity Measured: T/C

Illustrative cases are given below, each with its answer.
Compound	Measured Value
c1cc(OCC2CO2)ccc1OCC1CO1 (stereo unspecified)	77 % of control
Cn1ccc(=Nc2ccc(NC(=O)c3ccc(N=c4ccn(C)c5ccc([N+](=O)[O-])cc45)cc3[N+](=O)[O-])cc2)cc1	67 % of control
CCOC(=O)c1cn(C)c2c1C(O)=C(C(=O)OC)CC(=O)N2	97 % of control
COC(=O)C1(F)C(=O)NC(=O)NC1OC (stereo unspecified)	85 % of control
CC(=O)NC(Cc1ccc(F)cc1)C(=O)O (stereo unspecified)	77 % of control
C[C@]12CC[C@@H]3c4ccc(OC(=O)Cc5ccc(N(CCCl)CCCl)cc5)cc4CC[C@H]3[C@@H]1CC[C@@H]2OC(=O)Cc1ccc(N(CCCl)CCCl)cc1	195 % of control

Specify T/C for O=c1[nH]c(=O)n(C2CC(O)C(CO)O2)cc1I (stereo unspecified) and stop.
75 % of control

Identify measured T/C associated with O=C(N[C@H](CO)[C@H](O)c1ccc([N+](=O)[O-])cc1)C(Cl)Cl
68 % of control

Look up T/C of Nc1ccc(S(N)(=O)=O)cc1 and report it.
76 % of control

State its T/C for this compound: O=c1[nH]c(=O)n(C2CC(O)C(CO)O2)cc1C(F)(F)F (stereo unspecified)
105 % of control

Identify the reported T/C for the following entry. C/C=C/C=C1/OC(C)=C(C(C)=O)C1=O
100 % of control

----------
Examples of compounds with documented T/C follow.
System: BDF1 mice, colon carcinoma 38 sc, T/C %
Protocol Description: NCI In Vivo Anticancer Drug Screen. Data for tumor model Colon Carcinoma 38 (subcutaneous) in B6D2F1 (BDF1) mice
Condition Set: endpoint: median tumor weight (est.); dose: 50.0 mg/kg/injection; schedule: Q07DX003 (ip); vehicle: saline with Tween-80; higher = larger tumour
Results filed as inconclusive are left out.

In the examples that follow, each entry is paired with its recorded T/C.
Compound	T/C
CC(=O)OCC1OC(n2cc(CBr)nn2)C(OC(C)=O)C(OC(C)=O)C1OC(C)=O (centres undefined)	53 % of control
CN(C)c1nc(N(C)C)nc(N(C)C)n1	112 % of control
Clc1ccc(C(c2ccccc2Cl)C(Cl)Cl)cc1 (centres undefined)	59 % of control

// next item, T/C requested
Provide measured T/C value, entry: CCOC(C)C(/C=N/NC(N)=S)=NNC(N)=S (centres undefined)
99 % of control

----------
Test system: BDF1 mice, colon carcinoma 38 sc, T/C %
Protocol Description: NCI In Vivo Anticancer Drug Screen. Data for tumor model Colon Carcinoma 38 (subcutaneous) in B6D2F1 (BDF1) mice
Condition Set: endpoint: median tumor weight (est.); dose: 800.0 mg/kg/injection; schedule: Q07DX002 (ip); vehicle: Klucel (hydroxypropylcellulose) (HPC); higher = larger tumour
Results filed as inconclusive are left out.
Quantity Measured: T/C

# annotated cases, reported T/C shown
Compound	Quantity Measured	Measured Value
C[C@]12CCC(=O)C=C1CC[C@@H]1[C@@H]2[C@@H](O)C[C@@]2(C)[C@H]1CC[C@]2(O)C(=O)CO	T/C	93 % of control
Cc1ccc(C2NC(=S)N3C(c4ccc(C)cc4)NC(=S)N23)cc1 (configuration not stated)	T/C	60 % of control

Okay, now this compound:
State recorded T/C with BDF1 mice, colon carcinoma 38 sc, T/C %, entry C[Si](C)(C)OSc1ccccc1[N+](=O)[O-] , no comment.
86 % of control

----------
Test system: BDF1 mice, colon carcinoma 38 sc, T/C %
Protocol Description: NCI In Vivo Anticancer Drug Screen. Data for tumor model Colon Carcinoma 38 (subcutaneous) in B6D2F1 (BDF1) mice
Condition Set: endpoint: median tumor weight (est.); dose: 10.0 mg/kg/injection; schedule: Q07DX002 (ip); vehicle: saline; higher = larger tumour
Protocol: The antitumor activity of compounds was measured in mice bearing transplantable tumors. Survival or tumor size were measured and the results are expressed as the measurement made in the treated group (T) divided by the measurement made in the vehicle treated control group (C). The tumor model used in this assay is Colon Carcinoma 38 (subcutaneous) in B6D2F1 (BDF1) mice
Inconclusive results are not listed.
Quick list: T/C per entry.

In the examples that follow, each entry is paired with its recorded T/C.
Compound	T/C
OCC1OC(n2cnc3c2NC=NC[C@H]3O)CC1O (some centres undefined)	45 % of control
O=c1[nH]c(=O)n(C2CC(O)C(CO)O2)cc1C(F)(F)F (centres undefined)	83 % of control
CC1(C)OCC(CO)(Nc2nc(N3CC3)nc(N3CC3)n2)CO1	15 % of control

Now look at this one.
Note down T/C recorded for CC(=O)OCC12CCC(C)=CC1OC1C(OS(C)(=O)=O)C(=O)C2(C)C12CO2 (centres undefined)
88 % of control

----------
Here, each record is paired with measured T/C data.
System: BDF1 mice, colon carcinoma 38 sc, T/C %
Protocol Description: NCI In Vivo Anticancer Drug Screen. Data for tumor model Colon Carcinoma 38 (subcutaneous) in B6D2F1 (BDF1) mice
Condition Set: endpoint: median tumor weight (est.); dose: 200.0 mg/kg/injection; schedule: Q07DX002 (ip); vehicle: saline with Tween-80; higher = larger tumour
Records with an inconclusive call do not appear.

The cases that follow already have their T/C on record.
Compound	T/C
NCCCNCCSP(=O)(O)O	82 % of control
CC(=O)Nc1cscc1NC(C)=O	66 % of control
C1=CCOCOC1	58 % of control
Cc1ccc2c(c1)N=C(Nc1ccccc1)N=S2(C)=O (stereo unspecified)	105 % of control

Tell me T/C reported for CCOC(=O)N1CCc2nc3ccc(Cl)cc3cc21
79 % of control

Indicate the recorded T/C value for this compound: Nc1ccc(C(=O)Nc2ccccc2N)cc1
84 % of control

Complete the entry with T/C for COC(=O)C1(F)C(=O)NC(=O)NC1OC (stereo unspecified)
83 % of control

For the compound CC(=O)OCC1(C)NC(=O)c2ccccc2O1 (stereo unspecified) , give its measured T/C value.
109 % of control

Supply recorded T/C for CC(=O)Oc1[nH]c(=O)c2cccc3c2c1CCC3 here.
118 % of control

Could you please provide reported T/C for NCC1CCC(C(=O)O)CC1 (stereo unspecified) ? Thanks!
102 % of control

Assign T/C to the following record: O=C1N=C(Oc2ccccc2)SC1=O
118 % of control
